This collection of values is drawn from the supplement of paper PMC6757056.

Below: a set of entries, each annotated with reported normalized RNA/DNA level with ligand (log10).
B1: library; a variant is named by its letters at N, in order (parent)
chain: GCUGUCACCGGAAUACCAGCAUCGUCUUGAUGCCCUUGGAAGUCCGGUCUGAUGAGUCCNNNNNGGACGAAACAGC

Variants of: B1
protocol-text: normalized RNA/DNA level with ligand (relative to sTRSVctl = 100) (log10 (% of sTRSVctl)); higher = less ribozyme self-cleavage, higher mRNA level
experimental-context: ligand concentration (+) RNA-Seq: 5 mM, HEK293T, reporter: mCherry (pCS4076), ligand present: yes
observation-type: normalized RNA/DNA level with ligand (log10)

>>> print(df.to_string())
                                    residues  data_value
 0  GCUGUCACCGGAAUACCAGCAUCGUCUUGAUGCCCUUGGAAGUCCGGUCUGAUGAGUCCUCCUAGGACGAAACAGC           2
 1  GCUGUCACCGGAAUACCAGCAUCGUCUUGAUGCCCUUGGAAGUCCGGUCUGAUGAGUCCAGACAGGACGAAACAGC        1.87
 2  GCUGUCACCGGAAUACCAGCAUCGUCUUGAUGCCCUUGGAAGUCCGGUCUGAUGAGUCCAUCGAGGACGAAACAGC        2.02
 3  GCUGUCACCGGAAUACCAGCAUCGUCUUGAUGCCCUUGGAAGUCCGGUCUGAUGAGUCCUAACUGGACGAAACAGC           2
 4  GCUGUCACCGGAAUACCAGCAUCGUCUUGAUGCCCUUGGAAGUCCGGUCUGAUGAGUCCAUUAGGGACGAAACAGC        2.05
 5  GCUGUCACCGGAAUACCAGCAUCGUCUUGAUGCCCUUGGAAGUCCGGUCUGAUGAGUCCAGCGCGGACGAAACAGC        2.06
 6  GCUGUCACCGGAAUACCAGCAUCGUCUUGAUGCCCUUGGAAGUCCGGUCUGAUGAGUCCAGAGGGGACGAAACAGC        1.96
 7  GCUGUCACCGGAAUACCAGCAUCGUCUUGAUGCCCUUGGAAGUCCGGUCUGAUGAGUCCACUUAGGACGAAACAGC        2.05
 8  GCUGUCACCGGAAUACCAGCAUCGUCUUGAUGCCCUUGGAAGUCCGGUCUGAUGAGUCCACCCUGGACGAAACAGC        2.02
 9  GCUGUCACCGGAAUACCAGCAUCGUCUUGAUGCCCUUGGAAGUCCGGUCUGAUGAGUCCGAAAGGGACGAAACAGC        1.96
10  GCUGUCACCGGAAUACCAGCAUCGUCUUGAUGCCCUUGGAAGUCCGGUCUGAUGAGUCCCACAUGGACGAAACAGC        1.96
11  GCUGUCACCGGAAUACCAGCAUCGUCUUGAUGCCCUUGGAAGUCCGGUCUGAUGAGUCCCAAGCGGACGAAACAGC        1.96
12  GCUGUCACCGGAAUACCAGCAUCGUCUUGAUGCCCUUGGAAGUCCGGUCUGAUGAGUCCCUGUUGGACGAAACAGC        1.93
13  GCUGUCACCGGAAUACCAGCAUCGUCUUGAUGCCCUUGGAAGUCCGGUCUGAUGAGUCCUUGUCGGACGAAACAGC        1.99
14  GCUGUCACCGGAAUACCAGCAUCGUCUUGAUGCCCUUGGAAGUCCGGUCUGAUGAGUCCGUUGUGGACGAAACAGC        1.93
15  GCUGUCACCGGAAUACCAGCAUCGUCUUGAUGCCCUUGGAAGUCCGGUCUGAUGAGUCCACUAUGGACGAAACAGC        1.98
16  GCUGUCACCGGAAUACCAGCAUCGUCUUGAUGCCCUUGGAAGUCCGGUCUGAUGAGUCCAUAUGGGACGAAACAGC        1.99
17  GCUGUCACCGGAAUACCAGCAUCGUCUUGAUGCCCUUGGAAGUCCGGUCUGAUGAGUCCUGCCCGGACGAAACAGC        2.01
18  GCUGUCACCGGAAUACCAGCAUCGUCUUGAUGCCCUUGGAAGUCCGGUCUGAUGAGUCCUACAAGGACGAAACAGC        1.97
19  GCUGUCACCGGAAUACCAGCAUCGUCUUGAUGCCCUUGGAAGUCCGGUCUGAUGAGUCCUCAUUGGACGAAACAGC        2.03
20  GCUGUCACCGGAAUACCAGCAUCGUCUUGAUGCCCUUGGAAGUCCGGUCUGAUGAGUCCCAGUUGGACGAAACAGC        2.06
21  GCUGUCACCGGAAUACCAGCAUCGUCUUGAUGCCCUUGGAAGUCCGGUCUGAUGAGUCCUUGGAGGACGAAACAGC        2.01
22  GCUGUCACCGGAAUACCAGCAUCGUCUUGAUGCCCUUGGAAGUCCGGUCUGAUGAGUCCUGAUCGGACGAAACAGC        1.88
23  GCUGUCACCGGAAUACCAGCAUCGUCUUGAUGCCCUUGGAAGUCCGGUCUGAUGAGUCCAUAUUGGACGAAACAGC        2.05
24  GCUGUCACCGGAAUACCAGCAUCGUCUUGAUGCCCUUGGAAGUCCGGUCUGAUGAGUCCCAGAAGGACGAAACAGC        1.95
25  GCUGUCACCGGAAUACCAGCAUCGUCUUGAUGCCCUUGGAAGUCCGGUCUGAUGAGUCCUGGUGGGACGAAACAGC        2.04
26  GCUGUCACCGGAAUACCAGCAUCGUCUUGAUGCCCUUGGAAGUCCGGUCUGAUGAGUCCAACCUGGACGAAACAGC        2.06
27  GCUGUCACCGGAAUACCAGCAUCGUCUUGAUGCCCUUGGAAGUCCGGUCUGAUGAGUCCGAGCCGGACGAAACAGC        1.95
28  GCUGUCACCGGAAUACCAGCAUCGUCUUGAUGCCCUUGGAAGUCCGGUCUGAUGAGUCCUCGAUGGACGAAACAGC        2.09
29  GCUGUCACCGGAAUACCAGCAUCGUCUUGAUGCCCUUGGAAGUCCGGUCUGAUGAGUCCUUGUAGGACGAAACAGC        1.88
30  GCUGUCACCGGAAUACCAGCAUCGUCUUGAUGCCCUUGGAAGUCCGGUCUGAUGAGUCCUGCGUGGACGAAACAGC        1.97
31  GCUGUCACCGGAAUACCAGCAUCGUCUUGAUGCCCUUGGAAGUCCGGUCUGAUGAGUCCUAAGUGGACGAAACAGC        2.03
32  GCUGUCACCGGAAUACCAGCAUCGUCUUGAUGCCCUUGGAAGUCCGGUCUGAUGAGUCCCCACUGGACGAAACAGC        2.01
33  GCUGUCACCGGAAUACCAGCAUCGUCUUGAUGCCCUUGGAAGUCCGGUCUGAUGAGUCCUUGCUGGACGAAACAGC        1.94
34  GCUGUCACCGGAAUACCAGCAUCGUCUUGAUGCCCUUGGAAGUCCGGUCUGAUGAGUCCCUCUUGGACGAAACAGC        2.03
35  GCUGUCACCGGAAUACCAGCAUCGUCUUGAUGCCCUUGGAAGUCCGGUCUGAUGAGUCCUAAGCGGACGAAACAGC        1.94
36  GCUGUCACCGGAAUACCAGCAUCGUCUUGAUGCCCUUGGAAGUCCGGUCUGAUGAGUCCUCUCCGGACGAAACAGC        1.93
37  GCUGUCACCGGAAUACCAGCAUCGUCUUGAUGCCCUUGGAAGUCCGGUCUGAUGAGUCCUGACGGGACGAAACAGC        1.98
38  GCUGUCACCGGAAUACCAGCAUCGUCUUGAUGCCCUUGGAAGUCCGGUCUGAUGAGUCCACCGGGGACGAAACAGC        1.95
39  GCUGUCACCGGAAUACCAGCAUCGUCUUGAUGCCCUUGGAAGUCCGGUCUGAUGAGUCCCUUUUGGACGAAACAGC        1.99
40  GCUGUCACCGGAAUACCAGCAUCGUCUUGAUGCCCUUGGAAGUCCGGUCUGAUGAGUCCCAAUCGGACGAAACAGC        1.94
41  GCUGUCACCGGAAUACCAGCAUCGUCUUGAUGCCCUUGGAAGUCCGGUCUGAUGAGUCCUACCUGGACGAAACAGC        1.99
42  GCUGUCACCGGAAUACCAGCAUCGUCUUGAUGCCCUUGGAAGUCCGGUCUGAUGAGUCCUCCAAGGACGAAACAGC        2.04
43  GCUGUCACCGGAAUACCAGCAUCGUCUUGAUGCCCUUGGAAGUCCGGUCUGAUGAGUCCCAUACGGACGAAACAGC        1.92
44  GCUGUCACCGGAAUACCAGCAUCGUCUUGAUGCCCUUGGAAGUCCGGUCUGAUGAGUCCUCCCCGGACGAAACAGC           2
45  GCUGUCACCGGAAUACCAGCAUCGUCUUGAUGCCCUUGGAAGUCCGGUCUGAUGAGUCCUAACAGGACGAAACAGC        1.99
